Measured IC50 of individual entries
Target: STING WT: His-TVMV-S-hSTING(155-341)-H232R (Homo sapiens, UniProt Q86WV6, H232R)
Construct: STING WT: His-TVMV-S-hSTING(155-341)-H232R
Sequence (Q86WV6 with tags, fused parts or gaps H232R): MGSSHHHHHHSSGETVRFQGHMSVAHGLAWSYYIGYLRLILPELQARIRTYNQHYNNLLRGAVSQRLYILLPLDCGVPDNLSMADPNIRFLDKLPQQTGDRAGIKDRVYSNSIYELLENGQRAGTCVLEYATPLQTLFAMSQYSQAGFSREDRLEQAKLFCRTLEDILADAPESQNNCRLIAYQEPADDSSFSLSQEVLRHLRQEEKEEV
Experiment: STING HTRF Binding Assay, STING WT
Conditions: 20 nM His-tagged STING cytoplasmic domain, 200 nM fluorescein-labeled cGAMP analog probe, one hour; read-out: HTRF Binding Assays IC50 (μM) STING WT
Field format: number, assumed µM, no unit text.

Known results for molecules:
Molecule	Unit info	IC50
Nc1ncnc2c1ncn2[C@@H]1O[C@@H]2COP(=O)(S)O[C@H]3[C@@H](O)[C@H](n4cnc5c(=O)n6ccnc6[nH]c54)O[C@@H]3COP(=O)(S)O[C@H]2[C@H]1F (single isomer, unassigned) [Example 1-1]	µM	0.02
Nc1ncnc2c1ncn2[C@@H]1O[C@@H]2COP(=O)(S)O[C@H]3[C@@H](O)[C@H](n4cnc5c4ncn4ncnc54)O[C@@H]3COP(=O)(O)O[C@H]2[C@H]1F (single isomer, unassigned) [Example 10-2]	µM	0.05

Please examine the following record next.
[ask] Which IC50 is listed for NC(=O)c1cccc2c1nnn2[C@@H]1O[C@@H]2COP(=O)(S)O[C@H]3[C@@H](F)[C@H](n4cnc5c(N)ncnc54)O[C@@H]3COP(=O)(S)O[C@H]2[C@H]1F (single isomer, unassigned) [Example 4-2] ?
[reply] 8.1
